Source listed as PubChem BioAssay AID1117263.

# inhibition values compiled below
Target: Sialate O-acetylesterase (Homo sapiens) (UniProt Q9HAT2)
Sequence (Q9HAT2 whole entry, looked up): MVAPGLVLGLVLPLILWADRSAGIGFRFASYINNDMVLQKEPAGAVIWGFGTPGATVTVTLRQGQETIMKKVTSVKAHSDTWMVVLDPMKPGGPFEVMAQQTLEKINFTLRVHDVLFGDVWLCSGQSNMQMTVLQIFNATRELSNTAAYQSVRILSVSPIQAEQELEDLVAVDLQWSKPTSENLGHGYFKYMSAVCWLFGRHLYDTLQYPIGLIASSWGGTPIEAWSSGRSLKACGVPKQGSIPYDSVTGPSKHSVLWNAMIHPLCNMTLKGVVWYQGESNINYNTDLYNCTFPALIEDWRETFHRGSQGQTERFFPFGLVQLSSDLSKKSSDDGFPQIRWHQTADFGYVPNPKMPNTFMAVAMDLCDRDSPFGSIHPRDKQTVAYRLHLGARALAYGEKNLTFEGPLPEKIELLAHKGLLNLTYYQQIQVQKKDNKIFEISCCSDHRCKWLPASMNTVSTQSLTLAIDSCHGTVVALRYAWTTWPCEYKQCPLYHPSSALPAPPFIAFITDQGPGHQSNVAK
Test: human SIAE inhibitors, retest, confirmation, biochemical, fluorescence polarization, FP-Rh probe, triplicate (AID 1117263);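 also: 0% = SIAE with DMSO and probe and 100% = probe without SIAE; inhibitors lower polarization as more probe stays unbound to SIAE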
Settings: SIAE FP-Rh activity-based probe, at 9.66 µM, hits give high values
About 300 (13%) of roughly 2,300 compounds were called active. Only a sample is shown.
I only need the number, in %, no unit after it.

C[C@@H]1O[C@@H](OC[C@H]2O[C@@H](Oc3c(-c4ccc(O)cc4)oc4cc(O)cc(O)c4c3=O)[C@H](O)[C@@H](O)[C@@H]2O)[C@H](O)[C@H](O)[C@H]1O    6.07
Cn1cccc1/C=N/NC(=O)CNc1cccc2ccccc12    5.62
COc1ccc(-c2csc(Nc3ccc(O)cc3)n2)cc1    2.15
CCOc1ccc(Nc2nc(Cc3nnc(SCC(=O)NC4CCCC4)n3C)cs2)cc1    5.78
C=CCN1C(=O)[C@@H](CC(=O)NCC2CCCCC2)[C@]2(C(=O)OC)CCCCC=C12    4.13

query: What value of inhibition has been recorded for this entry: CCOC(=O)/C(N=Nc1cc(C(=O)O)cc(C(=O)O)c1)=C(\O)CCl
result: 2.21

query: What value of inhibition has been recorded for this entry: O=C(O)Cc1sc(-c2ccccc2)nc1-c1cccs1
result: -3.2

query: What value of inhibition has been recorded for this entry: O=C(O)c1ccccc1N=N/C(=N/Nc1cc(S(=O)(=O)O)ccc1O)c1ccccc1
result: 9.57

query: What value of inhibition has been recorded for this entry: O=C(NNc1c2ccccc2nc2ccccc12)c1cc2ccccc2cc1O
result: 13.8

query: What value of inhibition has been recorded for this entry: CNC(=S)N/N=C/c1cn(Cc2ccc(C)cc2)c2ccccc12
result: 9.36

query: What value of inhibition has been recorded for this entry: CC(=O)Nc1ccc(S(=O)(=O)Nc2ccc(N3CCCCC3)cc2)cc1
result: 4.68

query: What value of inhibition has been recorded for this entry: O=C(NC(=S)Nc1ccc(NC(=O)c2cccs2)cc1)c1ccc([N+](=O)[O-])cc1
result: 15.2

query: What value of inhibition has been recorded for this entry: COc1ccc(C2C(C(C)=O)=C(O)C(=O)N2CCc2c[nH]c3ccccc23)cc1 (centres undefined)
result: 0.13

query: What value of inhibition has been recorded for this entry: O=C(Nc1cccc(Cc2ccccc2)c1)Nc1ccc2nc([C@@H]3O[C@H](CO)[C@@H](O)[C@H](O)[C@H]3O)[nH]c2c1
result: 10.5

query: What value of inhibition has been recorded for this entry: Cc1nc(-c2ccc(Cl)cc2)sc1C(=O)NN
result: -2.12

query: What value of inhibition has been recorded for this entry: Cn1c(NN)nc2sc3c(c2c1=O)CCC3
result: 11.8

query: What value of inhibition has been recorded for this entry: NNc1nc2c(Cl)cccc2s1
result: 5.82

query: What value of inhibition has been recorded for this entry: COCCOC(=O)c1sc(=S)n(CCOC)c1N
result: 9.71

query: What value of inhibition has been recorded for this entry: O=C1CCN(C(=S)NCCc2ccccc2)CC1
result: -3.6

query: What value of inhibition has been recorded for this entry: CCOc1ccc(NC(=O)C/C(C)=N/NC(=O)Cc2cccs2)cc1
result: 4.73

query: What value of inhibition has been recorded for this entry: Oc1ccc(/C=N/N(Cc2ccccc2)c2ccccc2)cc1
result: 9.47

query: What value of inhibition has been recorded for this entry: Oc1ccc(C2Nc3cccc4cccc(c34)N2)cc1
result: 29.6

query: What value of inhibition has been recorded for this entry: Oc1ccc2ccc3cccc[n+]3c2c1
result: 4.67

query: What value of inhibition has been recorded for this entry: CCn1c(=O)n(CC)c2cc(N3CCCC3)c(NC(=O)c3ccccc3Br)cc21
result: 2.42

query: What value of inhibition has been recorded for this entry: CCOc1ccc(Nc2nc(Cc3nnc(SCC(=O)c4ccc(C)cc4)o3)cs2)cc1
result: 5.41
